# Experimental system: MOR (mu opioid receptor), MOR1-CHO (Mus musculus)
# Construct: expressed in transfected cells; host or cells: CHO
# Assay details: Competition binding in MOR-CHO, 125I-SMGP1 radioligand
# Condition info: MOR-CHO, 125I-SMGP1, 25° C., 90 minutes; read-out: Ki (nM) MOR
Grouping rule (Ki): b0 (below 0.3 nM), b1 (0.3 nM to below 1 nM), b2 (1 nM or more)

stdin: Where would C=CCN1CC[C@]23c4c5ccc(O)c4O[C@H]2[C@H](NC(=O)c2ccc(OC(F)(F)F)cc2)CC[C@@]3(O)[C@H]1C5 [SMGP 29] land among the classes by reported Ki?
stdout: b1

stdin: Where would C=CCN1CC[C@]23c4c5ccc(O)c4O[C@H]2[C@H](NC(=O)c2cccc(C(F)(F)F)c2)CC[C@@]3(O)[C@H]1C5 [SMGP 23] land among the classes by reported Ki?
stdout: b1

stdin: Where would C=CCN1CC[C@]23c4c5ccc(O)c4O[C@H]2[C@H](NC(=O)c2cccc(I)c2)CC[C@@]3(O)[C@H]1C5 [SMGP 3] land among the classes by reported Ki?
stdout: b0

stdin: Where would C=CCN1CC[C@]23c4c5ccc(O)c4O[C@H]2[C@H](NC(=O)c2ccccc2)CC[C@@]3(O)[C@H]1C5 [SMGP 21] land among the classes by reported Ki?
stdout: b2

stdin: Where would C=CCN1CC[C@]23c4c5ccc(O)c4O[C@H]2[C@H](NC(=O)c2cccc(OC)c2)CC[C@@]3(O)[C@H]1C5 [SMGP 24] land among the classes by reported Ki?
stdout: b0

stdin: Where would C=CCN1CC[C@]23c4c5ccc(O)c4O[C@H]2[C@H](NC(=O)c2cccc(O)c2)CC[C@@]3(O)[C@H]1C5 [SMGP 27] land among the classes by reported Ki?
stdout: b0

stdin: Where would C=CCN1CC[C@]23c4c5ccc(O)c4O[C@H]2[C@H](NC(=O)c2cccc(N)c2)CC[C@@]3(O)[C@H]1C5 [SMGP 25] land among the classes by reported Ki?
stdout: b1

stdin: Where would C=CCN1CC[C@]23c4c5ccc(O)c4O[C@H]2[C@H](NC(=O)c2cccc([N+](=O)[O-])c2)CC[C@@]3(O)[C@H]1C5 [SMGP 28] land among the classes by reported Ki?
stdout: b2

stdin: Where would C=CCN1CC[C@]23c4c5ccc(O)c4O[C@H]2[C@H](NC(=O)c2cccc(N(C)C)c2)CC[C@@]3(O)[C@H]1C5 [SMGP 26] land among the classes by reported Ki?
stdout: b2

stdin: Where would C=CCN1CC[C@]23c4c5ccc(O)c4O[C@H]2[C@H](NC(=O)c2cccc(C)c2)CC[C@@]3(O)[C@H]1C5 [SMGP 22] land among the classes by reported Ki?
stdout: b0

stdin: Where would C=CCN1CC[C@]23c4c5ccc(O)c4O[C@H]2[C@@H](NC(=O)c2cccc(I)c2)CC[C@@]3(O)[C@H]1C5 [SMGP 4] land among the classes by reported Ki?
stdout: b2

====

# Experimental system: KOR (kappa opioid receptor), KOR1-CHO (Mus musculus)
# Construct: expressed in transfected cells; host or cells: CHO
# Assay details: Competition binding in KOR-CHO, 125I-SMGP1 radioligand
# Condition info: KOR-CHO, 125I-SMGP1, 25° C., 90 minutes; read-out: Ki (nM) KOR
# Protocol: Receptor-Binding Assays: Competition-binding assays in MOR-CHO (mu), DOR-CHO (delta) and KOR-CHO (kappa) were performed at 25° C. in 50 mM potassium phosphate buffer, pH 7.4, containing 5 mM magnesium sulfate (only in the case of CHO-MOR). Specific binding was defined as the difference between total binding and nonspecific binding, determined in the presence of 8 μM levallorphan. […] Kd, Bmax, and Ki values were calculated by nonlinear regression analysis (GraphPadPrism). […]
Observation type: Ki (nM)
Entry rule: numbers only, all in nM.

stdin: Given `C=CCN1CC[C@]23c4c5ccc(O)c4O[C@H]2[C@H](NC(=O)c2cccc([N+](=O)[O-])c2)CC[C@@]3(O)[C@H]1C5` , respond with its Ki.
stdout: 1.51

stdin: Given `C=CCN1CC[C@]23c4c5ccc(O)c4O[C@H]2[C@H](NC(=O)c2cccc(N)c2)CC[C@@]3(O)[C@H]1C5` , respond with its Ki.
stdout: 0.4

stdin: Given `C=CCN1CC[C@]23c4c5ccc(O)c4O[C@H]2[C@H](NC(=O)c2cccc(C)c2)CC[C@@]3(O)[C@H]1C5` , respond with its Ki.
stdout: 1.62

stdin: Given `C=CCN1CC[C@]23c4c5ccc(O)c4O[C@H]2[C@H](NC(=O)c2cccc(N(C)C)c2)CC[C@@]3(O)[C@H]1C5` , respond with its Ki.
stdout: 34.9

stdin: Given `C=CCN1CC[C@]23c4c5ccc(O)c4O[C@H]2[C@H](NC(=O)c2ccc(OC(F)(F)F)cc2)CC[C@@]3(O)[C@H]1C5` , respond with its Ki.
stdout: 3.16

stdin: Given `C=CCN1CC[C@]23c4c5ccc(O)c4O[C@H]2[C@H](NC(=O)c2cccc(I)c2)CC[C@@]3(O)[C@H]1C5` , respond with its Ki.
stdout: 0.08

stdin: Given `C=CCN1CC[C@]23c4c5ccc(O)c4O[C@H]2[C@@H](NC(=O)c2cccc(I)c2)CC[C@@]3(O)[C@H]1C5` , respond with its Ki.
stdout: 12.2

====

# Experimental system: KOR (kappa opioid receptor), KOR1-CHO (Mus musculus, UniProt P33534)
# Construct: expressed in transfected cells; host or cells: CHO
# Assay details: Competition binding in KOR-CHO, 125I-SMGP1 radioligand
Answer each item with its documented pKi.
Just the number, please; pKi means minus log10 of the concentration in mol/L.

stdin: Given C=CCN1CCC23c4c5ccc(O)c4OC2C(NC(=O)c2ccc4ccccc4c2)CCC3(O)C1C5 (centres unmarked) , respond with its pKi.
stdout: 8.89

stdin: Given C=CCN1CC[C@]23c4c5ccc(O)c4O[C@H]2C(NC(=O)c2ccc4ccccc4n2)CC[C@@]3(O)[C@H]1C5 (some centres unmarked) , respond with its pKi.
stdout: 9.30

stdin: Given C=CCN1CCC23c4c5ccc(O)c4OC2C(NC(=O)c2ccc(I)cc2)CCC3(O)C1C5 (centres unmarked) , respond with its pKi.
stdout: 9.55

stdin: Given C=CCN1CCC23c4c5ccc(O)c4OC2C(NC(=O)C24CC6CC(CC(C6)C2)C4)CCC3(O)C1C5 (centres unmarked) , respond with its pKi.
stdout: 8.15

stdin: Given C=CCN1CCC23c4c5ccc(O)c4OC2C(NC(=O)C2CCCCC2)CCC3(O)C1C5 (centres unmarked) , respond with its pKi.
stdout: 7.75

stdin: Given C=CCN1CCC23c4c5ccc(O)c4OC2C(NC(=O)c2cccc(Cl)c2)CCC3(O)C1C5 (centres unmarked) , respond with its pKi.
stdout: 9.28

stdin: Given C=CCN1CCC23c4c5ccc(O)c4OC2C(NC(=O)CCCCC)CCC3(O)C1C5 (centres unmarked) , respond with its pKi.
stdout: 8.04

====

Answer each item with its documented Ki.
# Experimental system: KOR (kappa opioid receptor), KOR1-CHO (Mus musculus)
# Construct: expressed in transfected cells; host or cells: CHO
# Assay details: Competition binding in KOR-CHO, 125I-SMGP1 radioligand
Entry rule: numbers only, all in nM.

stdin: Given C=CCN1CCC23c4c5ccc(O)c4OC2C(NC(=O)c2ccc(C4CCCCC4)cc2)CCC3(O)C1C5 (stereo not shown) [SMGP 42] , respond with its Ki.
stdout: 49.8

stdin: Given O=C(NC1CCC2(O)C3Cc4ccc(O)c5c4C2(CCN3CC2CCC2)C1O5)c1cccc(I)c1 (stereo not shown) [SMGP 6] , respond with its Ki.
stdout: 0.67

stdin: Given C=CCN1CCC23c4c5ccc(O)c4OC2C(NC(=O)c2cccc(Br)c2)CCC3(O)C1C5 (stereo not shown) [SMGP 20] , respond with its Ki.
stdout: 1.58

stdin: Given C=CCN1CCC23c4c5ccc(O)c4OC2C(NC(=O)c2ccc(I)c(I)c2)CCC3(O)C1C5 (stereo not shown) [SMGP 34] , respond with its Ki.
stdout: 0.05

stdin: Given C=CCN1CCC23c4c5ccc(O)c4OC2C(NC(=O)c2ccc(-c4ccccc4)cc2)CCC3(O)C1C5 (stereo not shown) [SMGP 40] , respond with its Ki.
stdout: 25.8

stdin: Given O=C(NC1CCC2(O)C3Cc4ccc(O)c5c4C2(CCN3CC2CC2)C1O5)c1cccc(I)c1 (stereo not shown) [SMGP 1] , respond with its Ki.
stdout: 0.03

stdin: Given C=CCN1CCC23c4c5ccc(O)c4OC2C(NC(=O)c2cccc(F)c2)CCC3(O)C1C5 (stereo not shown) [SMGP 18] , respond with its Ki.
stdout: 2.05

stdin: Given C=CCN1CC[C@]23c4c5ccc(O)c4O[C@H]2C(NC(=O)c2ccc(SC)cc2)CC[C@@]3(O)[C@H]1C5 (stereo partly shown) [SMGP 59] , respond with its Ki.
stdout: 3.67

stdin: Given C=CCN1CCC23c4c5ccc(O)c4OC2C(NC(=O)c2ccccc2I)CCC3(O)C1C5 (stereo not shown) [SMGP 16] , respond with its Ki.
stdout: 1

Sourced from patent US9725457B2
